Taken from paper PMC6078987.

target: AlbASCTD (Klebsiella oxytoca, UniProt Q8KRS7); test: Fluorescence quenching binding assay with AlbASCTD; conditions: AlbASCTD 100 nM, n constrained to 1
Sequence (Q8KRS7 entry or part of it): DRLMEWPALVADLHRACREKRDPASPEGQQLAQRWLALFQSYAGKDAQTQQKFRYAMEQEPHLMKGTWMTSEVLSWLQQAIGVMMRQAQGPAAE
Property Name: pKd
Reminder that pKd is minus the log10 of a molar concentration.

Entry under test: COc1c(NC(=O)c2ccc(NC(=O)c3ccc(NC(=O)[C@H](CC#N)NC(=O)c4ccc(NC(=O)/C(C)=C/c5ccc(O)cc5)cc4)cc3)c(OC)c2O)ccc(C(=O)O)c1O . Its pKd was 6.22
